All values here come from patent US20030059862A1.

TARGET: T1, biotinylated APRIL (Homo sapiens (Human), UniProt O75888 105-250, biotinylated using NHS-biotin at a molar ratio of 20:1 biotin:APRIL)
T1 construct: also called bio-APRIL
T1 sequence: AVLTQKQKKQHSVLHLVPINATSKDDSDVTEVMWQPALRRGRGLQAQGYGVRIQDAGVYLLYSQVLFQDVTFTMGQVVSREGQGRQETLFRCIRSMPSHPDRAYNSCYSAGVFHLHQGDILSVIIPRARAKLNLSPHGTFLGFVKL
ASSAY OVERVIEW: scFv inhibition of bio-APRIL (50 ng/ml) binding to coated TACI fusion protein, streptavidin-DELFIA
The binders listed here are annotated with their pIC50.
Just so you know, pIC50 here is -log10 of the concentration in molar units; reply with that number alone.

INSERT INTO assay_data (binder, recorded_measurement) VALUES
  ('A020F03 (scFv) scFv: EVQLVQSGAEVKKPGASVKVSCKTSGYTFTDNYMHWVRQAPGQGLEWMGWISPNSSTTLYAQKFRGRVTLTRDTSVSTAYMELSGLDSDDTALYFCARGGRLAGSTVFTPAFEYWGRGTMVTVSSGGGGSGGGGSGGGGSAQAVLTQPSSVSEAPRQRVTISCSGSSSNIGNNAVKWYQQLPGKAPKLLIYYDDLLPSGVSDRFSGSKSGTSASLAISGLQSEDEADYYCAAWDDSLNGYVFGTGTKVTVLG', 8.46),
  ('A013B07 (scFv) scFv: EVQLVQSGAEVKKPGASVKVSCKTSGYTFTDNYMHWVRQAPGQGLEWMGWISPNSSTTLYAQKFRGRVTLTRDTSVSTAYMELSGLDSDDTALYFCARGGRLAGSTVFTPAFEYWGQGTMVTVSSGGGGSGGGGSGGGGSAQSVLTQPPSVSEAPRQRVTISCSGSSSNIGANAVNWYQQLPGKAPKLLIYFDDLLPSGVSDRFSGSKSGTSASLAISGLQSEDEADYYCAAWDDSLNGVVFGGGTKLTVLG', 8.00);

// lookup pIC50 for A004G02 (scFv) scFv: QVQLVQSGAEVKKPGSSVKVSCKASGGTFSSYGIRWVRQAPGQGLEWMGGIIPIFGTANYAQKFQGRVTITADEYTSTAYMELSSLRSEDTAVYYCARSNPQYDAFDIWGQGTTVTVSSGGGGSGGGGSGGGGSSYVLTQPPSVSGTPGQRVTVSCSGGRSNIGSNTVKWYQQLPGTAPKLLIYGNDQRPSGVPDRFSGSKSGNTASLTVSGLQVEDEADYYCQSYDSSLRGSVFGGGTKLTVLG
6.10

Value lookup for pIC50; key = A019C11 (scFv) scFv: EVQLVQSGAEVKKPGASVKVSCKTSGYTFTDNYMHWVRQAPGQGLEWMGWISPNSSTTLYAQKFRGRVTLTRDTSVSTAYMELSGLDSDDTALYFCARGGRLAGSTVFTPAFEYWGRGTMVTVSSGGGGSGGGGSGGGGSAQAVLTQPSSVSEAPRQRVTISCSGSSSNIGNNAVKWYQQLPGKAPKLLIYYDDLLPSGVSDRFSGSKSGTSASLAISGLQSEDEADYYCAAWDDSLNGYVFGTGTKVTVLG
8.00
